Oxysterols receptor LXR-alpha (Homo sapiens) (UniProt Q13133): reported RE for various compounds.

lineNotation	system	RE
COc1ccc(NC2=C(c3ccccc3)C(=O)N(C)C2=O)cc1	Oxysterols receptor LXR-alpha (Homo sapiens) (UniProt Q13133)	0.9
O=C(O)Cc1cccc(OCCCN(Cc2cccc(C(F)(F)F)c2Cl)CC(c2ccccc2)c2ccccc2)c1	Oxysterols receptor LXR-alpha (Homo sapiens) (UniProt Q13133)	1
COc1ccc(NC2=C(c3ccccc3)C(=O)N(Cc3ccccc3)C2=O)cc1	Oxysterols receptor LXR-alpha (Homo sapiens) (UniProt Q13133)	0.9
CCN1C(=O)C(Nc2ccccc2)=C(c2ccccc2)C1=O	Oxysterols receptor LXR-alpha (Homo sapiens) (UniProt Q13133)	0.7

###

# system: UniProt Q13133
# Sequence (Q13133 whole entry): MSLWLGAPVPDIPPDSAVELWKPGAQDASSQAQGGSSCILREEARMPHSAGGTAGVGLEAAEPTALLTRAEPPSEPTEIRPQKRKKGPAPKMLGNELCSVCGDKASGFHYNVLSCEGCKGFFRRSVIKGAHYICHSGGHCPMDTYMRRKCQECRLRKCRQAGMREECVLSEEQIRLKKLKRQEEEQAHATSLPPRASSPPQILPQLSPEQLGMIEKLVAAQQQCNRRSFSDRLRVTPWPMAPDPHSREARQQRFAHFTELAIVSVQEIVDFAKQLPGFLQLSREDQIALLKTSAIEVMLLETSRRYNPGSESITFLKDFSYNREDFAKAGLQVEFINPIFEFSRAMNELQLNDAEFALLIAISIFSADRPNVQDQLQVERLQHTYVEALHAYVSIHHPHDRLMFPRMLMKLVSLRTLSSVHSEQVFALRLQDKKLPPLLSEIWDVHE
# assayComment: Effective concentration for Steroid receptor coactivator-1 (SRC1) recruitment to human LXRalpha (Liver X receptor)
pEC50: −log10 of the molar value.

lineNotation	pEC50
O=C(O)Cc1cccc(OCCCN(Cc2cccc(C(F)(F)F)c2Cl)CC(c2ccccc2)c2ccccc2)c1	7.10
CCN1C(=O)C(Nc2ccccc2)=C(c2ccccc2)C1=O	6.05
COc1ccc(NC2=C(c3ccccc3)C(=O)N(c3ccccc3)C2=O)cc1	6.56
COc1ccc(NC2=C(c3ccccc3)C(=O)N(C)C2=O)cc1	6.24
COc1ccc(NC2=C(c3ccccc3)C(=O)N(Cc3ccccc3)C2=O)cc1	7.30
CN1C(=O)C(Nc2ccccc2)=C(c2ccccc2)C1=O	5.80
CCN1C(=O)C(Nc2ccc(Cl)cc2)=C(c2ccccc2)C1=O	6.14
CCN1C(=O)C(Nc2ccc(OC)cc2)=C(c2ccccc2)C1=O	6.52
O=C1C(Nc2ccccc2)=C(c2ccccc2)C(=O)N1Cc1ccccc1	7.00
O=C1C(Nc2ccc(Cl)cc2)=C(c2ccccc2)C(=O)N1Cc1ccccc1	6.89

###

Glycogen synthase kinase-3 beta (Homo sapiens): reported IC50 for various compounds.
Sequence (P49841 whole entry): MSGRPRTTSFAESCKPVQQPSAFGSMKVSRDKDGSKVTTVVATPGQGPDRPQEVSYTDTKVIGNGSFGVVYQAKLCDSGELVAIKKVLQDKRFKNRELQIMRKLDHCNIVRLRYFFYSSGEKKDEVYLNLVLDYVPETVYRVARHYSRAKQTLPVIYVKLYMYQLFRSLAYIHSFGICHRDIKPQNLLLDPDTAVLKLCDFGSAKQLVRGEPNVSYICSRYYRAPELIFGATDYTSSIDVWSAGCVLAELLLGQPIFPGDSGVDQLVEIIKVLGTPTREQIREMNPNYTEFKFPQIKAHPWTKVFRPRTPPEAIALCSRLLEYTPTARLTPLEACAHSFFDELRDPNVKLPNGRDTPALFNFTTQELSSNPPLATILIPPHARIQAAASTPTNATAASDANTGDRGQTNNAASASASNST
metricName: IC50

lineNotation	metricName	reportedResult
COc1ccc(NC2=C(c3ccccc3)C(=O)N(c3ccccc3)C2=O)cc1	IC50	> 5 µM
CCN1C(=O)C(Nc2ccc(OC)cc2)=C(c2ccccc2)C1=O	IC50	> 5 µM
COc1ccc(NC2=C(c3ccccc3)C(=O)N(C)C2=O)cc1	IC50	> 2 µM
O=C1C(Nc2ccccc2)=C(c2ccccc2)C(=O)N1Cc1ccccc1	IC50	> 5 µM

###

# system: Oxysterols receptor LXR-beta (Homo sapiens, UniProt P55055)
# Sequence (P55055 whole entry): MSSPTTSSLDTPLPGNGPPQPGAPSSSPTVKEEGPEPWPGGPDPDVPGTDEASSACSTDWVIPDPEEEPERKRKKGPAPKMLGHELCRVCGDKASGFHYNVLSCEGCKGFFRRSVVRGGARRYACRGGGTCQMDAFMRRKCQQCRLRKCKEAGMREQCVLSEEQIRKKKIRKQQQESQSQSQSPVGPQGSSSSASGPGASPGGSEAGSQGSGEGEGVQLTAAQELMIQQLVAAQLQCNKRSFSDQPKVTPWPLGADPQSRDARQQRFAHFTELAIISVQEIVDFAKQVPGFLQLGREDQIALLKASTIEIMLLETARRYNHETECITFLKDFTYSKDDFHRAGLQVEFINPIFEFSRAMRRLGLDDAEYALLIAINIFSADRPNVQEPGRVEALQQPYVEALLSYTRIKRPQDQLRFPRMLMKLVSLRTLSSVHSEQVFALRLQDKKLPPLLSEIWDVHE
# assayComment: Effective concentration for Steroid receptor coactivator-1 (SRC1) recruitment to human LXRbeta (Liver X receptor)
pEC50: −log10 of the molar value.
Reported pEC50 values for the following compounds.

lineNotation	pEC50
O=C1C(Nc2ccc(Cl)cc2)=C(c2ccccc2)C(=O)N1Cc1ccccc1	6.96
COc1ccc(NC2=C(c3ccccc3)C(=O)N(C)C2=O)cc1	6.52
COc1ccc(NC2=C(c3ccccc3)C(=O)N(c3ccccc3)C2=O)cc1	6.59
CN1C(=O)C(Nc2ccccc2)=C(c2ccccc2)C1=O	6.07
CCN1C(=O)C(Nc2ccc(OC)cc2)=C(c2ccccc2)C1=O	6.70
CCN1C(=O)C(Nc2ccccc2)=C(c2ccccc2)C1=O	6.25

###

# Species on record: Homo sapiens
Think of 0.5 as a floor: if RE stands on it or above, it is fulfilled; beneath it, not fulfilled.

lineNotation	labelClass
O=C1C(Nc2ccc(Cl)cc2)=C(c2ccccc2)C(=O)N1Cc1ccccc1	not fulfilled
CCN1C(=O)C(Nc2ccc(Cl)cc2)=C(c2ccccc2)C1=O	not fulfilled
COc1ccc(NC2=C(c3ccccc3)C(=O)N(C)C2=O)cc1	fulfilled
CN1C(=O)C(Nc2ccccc2)=C(c2ccccc2)C1=O	not fulfilled
CCN1C(=O)C(Nc2ccc(OC)cc2)=C(c2ccccc2)C1=O	not fulfilled
COc1ccc(NC2=C(c3ccccc3)C(=O)N(c3ccccc3)C2=O)cc1	fulfilled
COc1ccc(NC2=C(c3ccccc3)C(=O)N(Cc3ccccc3)C2=O)cc1	fulfilled
O=C1C(Nc2ccccc2)=C(c2ccccc2)C(=O)N1Cc1ccccc1	fulfilled
O=C(O)Cc1cccc(OCCCN(Cc2cccc(C(F)(F)F)c2Cl)CC(c2ccccc2)c2ccccc2)c1	fulfilled
O=S(=O)(c1ccccc1)N(CC(F)(F)F)c1ccc(C(O)(C(F)(F)F)C(F)(F)F)cc1	fulfilled

###

# system: Oxysterols receptor LXR-beta (Homo sapiens)
# assayComment: Effective concentration for Steroid receptor coactivator-1 (SRC1) recruitment to human LXRbeta (Liver X receptor)
pEC50: −log10 of the molar value.
metricName: pEC50

lineNotation	reportedResult
O=C1C(Nc2ccccc2)=C(c2ccccc2)C(=O)N1Cc1ccccc1	7.15
CCN1C(=O)C(Nc2ccc(Cl)cc2)=C(c2ccccc2)C1=O	6.24
COc1ccc(NC2=C(c3ccccc3)C(=O)N(Cc3ccccc3)C2=O)cc1	7.40

###

# assayComment: Effective concentration in human ATP binding cassette transporter A1 (ABCA1) transcriptional activation assay

lineNotation	EC50 [nM]
CCN1C(=O)C(Nc2ccc(OC)cc2)=C(c2ccccc2)C1=O	10200
COc1ccc(NC2=C(c3ccccc3)C(=O)N(C)C2=O)cc1	840
O=S(=O)(c1ccccc1)N(CC(F)(F)F)c1ccc(C(O)(C(F)(F)F)C(F)(F)F)cc1	70
